target or system: Lysine-specific demethylase 7A (Homo sapiens) (UniProt Q6ZMT4)
Sequence (Q6ZMT4 whole entry): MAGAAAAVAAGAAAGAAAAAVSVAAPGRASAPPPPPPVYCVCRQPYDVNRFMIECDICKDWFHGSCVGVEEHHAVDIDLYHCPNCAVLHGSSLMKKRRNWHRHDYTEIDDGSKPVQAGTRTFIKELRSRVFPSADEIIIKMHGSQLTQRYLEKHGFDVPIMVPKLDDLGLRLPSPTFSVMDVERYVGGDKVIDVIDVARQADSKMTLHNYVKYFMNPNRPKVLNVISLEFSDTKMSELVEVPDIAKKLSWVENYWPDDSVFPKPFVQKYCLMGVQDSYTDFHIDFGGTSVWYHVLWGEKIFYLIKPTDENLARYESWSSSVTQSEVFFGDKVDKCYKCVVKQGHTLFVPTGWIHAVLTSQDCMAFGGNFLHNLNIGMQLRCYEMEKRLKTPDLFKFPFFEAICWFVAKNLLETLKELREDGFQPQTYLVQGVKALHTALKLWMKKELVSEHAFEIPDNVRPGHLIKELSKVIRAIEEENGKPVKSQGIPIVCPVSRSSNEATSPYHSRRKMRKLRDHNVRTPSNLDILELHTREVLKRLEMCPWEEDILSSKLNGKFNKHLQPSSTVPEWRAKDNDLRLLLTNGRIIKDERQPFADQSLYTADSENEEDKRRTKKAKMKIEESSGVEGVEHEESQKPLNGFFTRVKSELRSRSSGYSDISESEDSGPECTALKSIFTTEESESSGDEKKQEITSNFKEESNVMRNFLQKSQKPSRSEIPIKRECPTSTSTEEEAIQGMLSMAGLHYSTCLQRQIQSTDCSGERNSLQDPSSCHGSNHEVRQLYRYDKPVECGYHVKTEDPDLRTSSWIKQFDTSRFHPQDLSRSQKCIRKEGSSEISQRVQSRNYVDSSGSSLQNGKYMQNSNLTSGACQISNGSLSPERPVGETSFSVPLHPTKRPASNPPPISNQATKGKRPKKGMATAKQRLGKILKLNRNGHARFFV
assay text: Inhibition of KDM7A (PHD-JmjC) (unknown origin) demethylation activity at 100 uM preincubated for 10 mins followed by H3(1-15)K9me2 peptide substrate addition by MALDI-TOF-MS analysis
For each record, write down the corresponding inhibition.
Please answer using a numeric value trailed by its unit.

Data request, read-out inhibition, for CCCCc1oc2ccccc2c1C(=O)c1cc(I)c(OCCC[N+](C)(C)C)c(I)c1
100%

Moving on to CCCCc1oc2ccccc2c1C(=O)c1cc(I)c(OCC[N+](C)(C)C)c(I)c1
17%

Moving on to CCCCc1oc2ccccc2c1C(=O)c1ccc(OCCCN(C)C)cc1
100%

Moving on to Cc1oc2ccccc2c1C(=O)c1ccc(OCCC[N+](C)(C)C)cc1
100%

Moving on to CCCCc1oc2ccccc2c1C(=O)c1ccc(OCCC[N+](C)(C)C)cc1
100%
